assay: JHH-DIPG-1 glioma cell viability, MIPE5.0 library, CellTiter-Glo luminescence, qHTS (AID 1347067); conditions: JHH-DIPG-1 glioma viability, CellTiter-Glo ATP luminescence;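 note: cells exposed to compound for 48 hours before readout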
Records with an inconclusive call do not appear. Calls of active or inactive are those of the source. No cut-off is given here; in the data, nearly all actives have AC50 up to about 26 µM.
Log the outcome using a class from yes (1) = active, no (0) = inactive

# example entries with known answers
>>> cat("COc1cc2c3c(n(CCCNCCO)c(=O)c2cc1OC)-c1cc2c(cc1C3=O)OCO2")
"yes (1)"
>>> cat("[2H]c1nc(C)nc([2H])c1-c1cc(NC[C@@H](C)c2cccc3c(C(=O)NC)ccnc23)ncn1")
"no (0)"
>>> cat("CCC[C@H](NC(=O)/C(C#N)=C/c1cccc(Br)n1)c1ccccc1")
"yes (1)"

For CCn1c(N)c(C(=O)NC)c(=O)c2ccc(C#CC(C)(O)COC)nc21 (centres undefined) , what call appears in the results of this test?
no (0)

Give the logged outcome of this assay for the following molecule: CCCN1CCN(c2ccc(C(=O)NC3(C(=O)NCC#N)CCCCC3)cc2)CC1
no (0)

Hey, what did the test say about NC(=O)C1=C(O)[C@@]2(O)C(=O)C3=C(O)c4c(O)cccc4C[C@H]3C[C@H]2CC1=O ?
yes (1)

Returns: the outcome recorded for CCOCOC[C@H](C[C@H](C)C(=O)NO)NC(=O)c1ccc(Oc2ccccc2)cc1 in this assay.
no (0)

GET /call?item= O=c1cc(N2CCOCC2)oc2c(-c3ccc4c(c3)OCCO4)csc12 returns the recorded outcome of this test.
yes (1)

Write down the call the test reported for this molecule. Item: Cc1cc(N2CCOCC2)cc2[nH]c(-c3c(NC[C@@H](O)c4cccc(Cl)c4)cc[nH]c3=O)nc12
yes (1)

----------
assay: viability loss in pontine glioma line – cell-based, SU-DIPG-XIII, MIPE5.0, CellTiter-Glo, qHTS, dose response (AID 1347064); settings: CellTiter-Glo ATP luminescence;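 for AC50: cells exposed to compound for 48 hours before the viability read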
Inconclusive results are not listed. Calls of active or inactive are those of the source. No cut-off is given here; in the data, nearly all actives have AC50 up to about 23 µM.
Hi! Could you answer with just one of these? active, inactive

Here are 5 compounds together with their reported answers.
>>> cat("CCN1CCN(Cc2ccc(Nc3ncc(F)c(-c4cc(F)c5nc(C)n(C(C)C)c5c4)n3)nc2)CC1")
"active"
>>> cat("O=C(CC12CC3CC(CC(C3)C1)C2)Nc1cccc2nc(NCCNCCO)ccc12")
"inactive"
>>> cat("COc1ccc(S(=O)(=O)N2CCc3cccc(-c4ccncc4)c32)cc1")
"active"
>>> cat("COc1c(C)cnc(Cn2cnc3c(Cl)nc(N)nc32)c1C")
"active"
>>> cat("O=c1cc(N2CCOCC2)oc2c(-c3cccc4c3sc3ccccc34)cccc12")
"active"

Give the logged outcome of this assay for the following compound: Cn1nccc1Nc1nccc(-c2ccn([C@H](CO)c3ccc(Cl)c(F)c3)c(=O)c2)n1
active

For this compound, state the assay outcome: Cc1ccccc1C(C(=O)NC1CCCCC1)N(C(=O)Cn1ccnc1C)c1cccc(F)c1 (stereo not given)
inactive

Status in this test for CS(=O)(=O)c1cccc(CNc2nc(Nc3ccc4c(c3)CCC(=O)N4)ncc2C(F)(F)F)c1 ?
active

Per the records of this test, what outcome belongs to Cn1ncc(Cl)c1-c1cc(C(=O)N[C@H](CN)Cc2ccc(F)c(F)c2)sc1Cl ?
active

Query: recorded result category for N#CC1(c2ccc(NC(=O)c3cccnc3NCc3ccncc3)cc2)CCCC1 in this test
inactive

Just for reference, PubChem BioAssay is where these values come from.
